Test system: Severe acute respiratory syndrome-related coronavirus
test_protocol: Inhibition of N7-MTase activity of N-terminal His6-tagged SARS-CoV nsp14 expressed in Escherichia coli using GpppAC4 and [3H]SAM as substrate at 50 uM preincubated with enzyme followed by substrate addition and measured after 30 mins by filter binding assay
outcome_measure: inhibition

- compound: "Nc1ncnc2c1ncn2[C@@H]1OC(CN(CCO[C@@H]2[C@H](O)C(CO)O[C@H]2n2cnc3c(N)ncnc32)Cc2ccc(Cl)cc2)[C@@H](O)[C@H]1O (single isomer, unassigned)"
  outcome_measure: "inhibition"
  readout_value: "75.9%"
- compound: "Nc1ncnc2c1ncn2[C@@H]1O[C@H](CNCCO[C@@H]2[C@H](O)[C@@H](CO)O[C@H]2n2cnc3c(N)ncnc32)[C@@H](O)[C@H]1O"
  outcome_measure: "inhibition"
  readout_value: "31%"
- compound: "Nc1ncnc2c1ncn2[C@@H]1OC(CN(CCO[C@@H]2[C@H](O)C(CO)O[C@H]2n2cnc3c(N)ncnc32)S(=O)(=O)c2ccc(Cl)c([N+](=O)[O-])c2)[C@@H](O)[C@H]1O (single isomer, unassigned)"
  outcome_measure: "inhibition"
  readout_value: "97.2%"
- compound: "NC(=O)[C@@H](N)CCN(CCO[C@@H]1[C@H](O)[C@@H](CO)O[C@H]1n1cnc2c(N)ncnc21)C[C@H]1O[C@@H](n2cnc3c(N)ncnc32)[C@H](O)[C@@H]1O"
  outcome_measure: "inhibition"
  readout_value: "13.1%"
- compound: "Nc1ncnc2c1ncn2[C@@H]1O[C@H](CN(CCCC(=O)O)CCO[C@@H]2[C@H](O)[C@@H](CO)O[C@H]2n2cnc3c(N)ncnc32)[C@@H](O)[C@H]1O"
  outcome_measure: "inhibition"
  readout_value: "43%"
- compound: "Nc1ncnc2c1ncn2[C@@H]1O[C@H](CN(CCO[C@@H]2[C@H](O)[C@@H](CO)O[C@H]2n2cnc3c(N)ncnc32)CC[C@H](N)C(=O)O)[C@@H](O)[C@H]1O"
  outcome_measure: "inhibition"
  readout_value: "72%"

----------
Tested on: Orthopoxvirus vaccinia
test_protocol: Inhibition of N7-MTase activity of Vaccinia virus mRNA capping enzyme D1/D12 complex using GpppAC4 and [3H]SAM as substrate at 50 uM preincubated with enzyme followed by substrate addition and measured after 30 mins by filter binding assay
The source made the active and inactive calls. No cut-off for these calls is given here.

- compound: "Nc1ncnc2c1ncn2[C@@H]1OC(CN(CCO[C@@H]2[C@H](O)C(CO)O[C@H]2n2cnc3c(N)ncnc32)Cc2ccc(Cl)cc2)[C@@H](O)[C@H]1O (single isomer, unassigned)"
  inhibition: "4.5%"
- compound: "Nc1ncnc2c1ncn2[C@@H]1OC(CN(CCO[C@@H]2[C@H](O)C(CO)O[C@H]2n2cnc3c(N)ncnc32)S(=O)(=O)c2ccc(Cl)cc2)[C@@H](O)[C@H]1O (single isomer, unassigned)"
  inhibition: "19.7%"
- compound: "Nc1ncnc2c1ncn2[C@@H]1O[C@H](CN(CCCC(=O)O)CCO[C@@H]2[C@H](O)[C@@H](CO)O[C@H]2n2cnc3c(N)ncnc32)[C@@H](O)[C@H]1O"
  inhibition: "inactive"
- compound: "Nc1ncnc2c1ncn2[C@@H]1OC(CN(CCO[C@@H]2[C@H](O)C(CO)O[C@H]2n2cnc3c(N)ncnc32)S(=O)(=O)c2ccc([N+](=O)[O-])cc2)[C@@H](O)[C@H]1O (single isomer, unassigned)"
  inhibition: "49.8%"
- compound: "NC(=O)[C@@H](N)CCN(CCO[C@@H]1[C@H](O)[C@@H](CO)O[C@H]1n1cnc2c(N)ncnc21)C[C@H]1O[C@@H](n2cnc3c(N)ncnc32)[C@H](O)[C@@H]1O"
  inhibition: "53.2%"
- compound: "CCCCN(CCO[C@@H]1[C@H](O)[C@@H](CO)O[C@H]1n1cnc2c(N)ncnc21)C[C@H]1O[C@@H](n2cnc3c(N)ncnc32)[C@H](O)[C@@H]1O"
  inhibition: "inactive"
- compound: "Nc1ncnc2c1ncn2[C@@H]1OC(CN(CCCc2ccccc2)CCO[C@@H]2[C@H](O)C(CO)O[C@H]2n2cnc3c(N)ncnc32)[C@@H](O)[C@H]1O (single isomer, unassigned)"
  inhibition: "11.6%"
- compound: "Nc1ncnc2c1ncn2[C@@H]1OC(CN(CCO[C@@H]2[C@H](O)C(CO)O[C@H]2n2cnc3c(N)ncnc32)S(=O)(=O)c2ccc(C(F)(F)F)cc2[N+](=O)[O-])[C@@H](O)[C@H]1O (single isomer, unassigned)"
  inhibition: "10.1%"
- compound: "Nc1ncnc2c1ncn2[C@@H]1OC(CN(CCO[C@@H]2[C@H](O)C(CO)O[C@H]2n2cnc3c(N)ncnc32)Cc2ccc(Cl)c([N+](=O)[O-])c2)[C@@H](O)[C@H]1O (single isomer, unassigned)"
  inhibition: "4.3%"
- compound: "Nc1ncnc2c1ncn2[C@@H]1O[C@H](CNCCO[C@@H]2[C@H](O)[C@@H](CO)O[C@H]2n2cnc3c(N)ncnc32)[C@@H](O)[C@H]1O"
  inhibition: "20.3%"
- compound: "Nc1ncnc2c1ncn2[C@@H]1OC(CN(CCO[C@@H]2[C@H](O)C(CO)O[C@H]2n2cnc3c(N)ncnc32)S(=O)(=O)c2ccc(Cl)c([N+](=O)[O-])c2)[C@@H](O)[C@H]1O (single isomer, unassigned)"
  inhibition: "2.8%"
- compound: "COc1ccc(S(=O)(=O)N(CCO[C@@H]2[C@H](O)C(CO)O[C@H]2n2cnc3c(N)ncnc32)CC2O[C@@H](n3cnc4c(N)ncnc43)[C@H](O)[C@@H]2O)c([N+](=O)[O-])c1 (single isomer, unassigned)"
  inhibition: "4.6%"
- compound: "COC(=O)[C@@H](N)CCN(CCO[C@@H]1[C@H](O)[C@@H](CO)O[C@H]1n1cnc2c(N)ncnc21)C[C@H]1O[C@@H](n2cnc3c(N)ncnc32)[C@H](O)[C@@H]1O"
  inhibition: "32.1%"
- compound: "COc1cc([N+](=O)[O-])ccc1S(=O)(=O)N(CCO[C@@H]1[C@H](O)C(CO)O[C@H]1n1cnc2c(N)ncnc21)CC1O[C@@H](n2cnc3c(N)ncnc32)[C@H](O)[C@@H]1O (single isomer, unassigned)"
  inhibition: "5.3%"
